# reported inhibition in vivo at 200 mg/kg; entries follow
# System: carrageenin-induced edema in the hind paw of a rat
# assay.procedure: Carrageenin Assay (carrageenin-induced edema, hind paw)
# Assay type: in vivo, rat (male, Long Evans strain)
# condition.details: Rattus norvegicus; 200 mg/kg oral, 1 h before carrageenin; edema at 3 h; compared to phenylbutazone control values; read-out: % Reduction of Edema
API: value field is a number in %; no unit string.

CSc1nncc(-c2cc3ccccc3o2)n1; 2
COc1ccc(Oc2nncc(-c3ccccc3)n2)cc1; 15
C=CCOc1nncc(-c2ccccc2)n1; 67
COc1nnc(-c2ccccn2)c(-c2ccccn2)n1; 46
COc1ccc(-c2cnnc(OC)n2)cc1; 17
COc1nncc(-c2ccc(OC)c(OC)c2)n1; 52
CSc1nncc(-c2cccs2)n1; 51
COc1cc(-c2cnnc(SC)n2)ccc1O; 5
COc1nncc(-c2ccc3ccccc3c2)n1; 7
CSc1nncc(-c2ccc([N+](=O)[O-])cc2)n1; 16

## Input Tell me inhibition in vivo at 200 mg/kg reported for COc1nncc(-c2ccc(Br)cc2)n1
## Output 33

* * *

# Tested on: phenylquinone writhing in mice
# assay.procedure: Phenylquinone Writhing Assay (analgesia)
# Assay type: in vivo, mouse (Carworth CF1 male mice)
# condition.details: Mus musculus, po, 0.25 h, 100 mg/kg oral, 15 Min.; read-out: Phenylquinone Writhing Assay (% Control), percent analgesia
Field: label. Allowed values: TRUE (responders at 100 mg/kg < 30%) or FALSE (responders at 100 mg/kg >= 30%).

These recorded examples may help you get a feel for the data.
COc1cc(-c2cnnc(SC)n2)ccc1OCc1ccccc1; TRUE
CSc1nncc(-c2ccc(C)cc2)n1; TRUE
CN(CCO)c1nncc(-c2ccccc2)n1; TRUE

## Input I'd appreciate it if you could check whether COc1nncc(-c2cccc3ccccc23)n1 has responders at 100 mg/kg smaller than 30%.
## Output TRUE

## Input I'd appreciate it if you could check whether Cc1ccc(-c2nnc(C)nc2-c2ccc(C)cc2)cc1 has responders at 100 mg/kg smaller than 30%.
## Output FALSE

## Input I'd appreciate it if you could check whether COc1ccc(-c2nnc(N(C)CCO)nc2-c2ccc(OC)cc2)cc1 has responders at 100 mg/kg smaller than 30%.
## Output FALSE

* * *

# Tested on: carrageenin-induced edema in the hind paw of a rat
# assay.procedure: Carrageenin Assay (carrageenin-induced edema, hind paw)
# Assay type: in vivo, rat (male, Long Evans strain)
# condition.details: Rattus norvegicus; 200 mg/kg oral, 1 h before carrageenin; edema at 3 h; compared to phenylbutazone control values; read-out: % Reduction of Edema
# reported inhibition in vivo at 200 mg/kg; entries follow
API: value field is a number in %; no unit string.

## Input Fill in: inhibition in vivo at 200 mg/kg on carrageenin-induced edema in the hind paw of a rat, entry Cc1ccc(Oc2nnc(-c3ccccc3)c(-c3ccccc3)n2)cc1
## Output 18

## Input Fill in: inhibition in vivo at 200 mg/kg on carrageenin-induced edema in the hind paw of a rat, entry COc1nncc(C(C)(C)C)n1
## Output 64

## Input Fill in: inhibition in vivo at 200 mg/kg on carrageenin-induced edema in the hind paw of a rat, entry CCOc1nncc(-c2ccccc2)n1
## Output 96

## Input Fill in: inhibition in vivo at 200 mg/kg on carrageenin-induced edema in the hind paw of a rat, entry Clc1nnc(-c2ccccc2)c(-c2ccccc2)n1
## Output 4

## Input Fill in: inhibition in vivo at 200 mg/kg on carrageenin-induced edema in the hind paw of a rat, entry CSc1nncc(-c2ccc(N3CCOCC3)cc2)n1
## Output 19

## Input Fill in: inhibition in vivo at 200 mg/kg on carrageenin-induced edema in the hind paw of a rat, entry CSc1nnc(-c2ccccn2)c(-c2ccccn2)n1
## Output 19

## Input Fill in: inhibition in vivo at 200 mg/kg on carrageenin-induced edema in the hind paw of a rat, entry CSc1nncc(-c2ccco2)n1
## Output 39

## Input Fill in: inhibition in vivo at 200 mg/kg on carrageenin-induced edema in the hind paw of a rat, entry COc1ccc(-c2cnnc(SC)n2)cc1
## Output 18

## Input Fill in: inhibition in vivo at 200 mg/kg on carrageenin-induced edema in the hind paw of a rat, entry CSc1nncc(C23CC4CC(CC(C4)C2)C3)n1
## Output 17

## Input Fill in: inhibition in vivo at 200 mg/kg on carrageenin-induced edema in the hind paw of a rat, entry CSc1nncc(-c2c[nH]c3ccccc23)n1
## Output 71

## Input Fill in: inhibition in vivo at 200 mg/kg on carrageenin-induced edema in the hind paw of a rat, entry Cc1nnc(SCc2ccccc2)nc1C
## Output 52

## Input Fill in: inhibition in vivo at 200 mg/kg on carrageenin-induced edema in the hind paw of a rat, entry c1ccc(Oc2nnc(-c3ccccc3)c(-c3ccccc3)n2)cc1
## Output 7

## Input Fill in: inhibition in vivo at 200 mg/kg on carrageenin-induced edema in the hind paw of a rat, entry CSc1nnc(-c2ccc(Cl)cc2)c(-c2ccc(Cl)cc2)n1
## Output 7

## Input Fill in: inhibition in vivo at 200 mg/kg on carrageenin-induced edema in the hind paw of a rat, entry CCc1ccc(-c2cnnc(SC)n2)cc1
## Output 33

## Input Fill in: inhibition in vivo at 200 mg/kg on carrageenin-induced edema in the hind paw of a rat, entry CSc1nnc(-c2ccc(NC(C)=O)cc2)c(-c2ccc(NC(C)=O)cc2)n1
## Output 12

## Input Fill in: inhibition in vivo at 200 mg/kg on carrageenin-induced edema in the hind paw of a rat, entry CCCCCOc1nncc(-c2ccccc2)n1
## Output 29

## Input Fill in: inhibition in vivo at 200 mg/kg on carrageenin-induced edema in the hind paw of a rat, entry Cc1nnc(OC(C)C)nc1C
## Output 37

## Input Fill in: inhibition in vivo at 200 mg/kg on carrageenin-induced edema in the hind paw of a rat, entry COc1nncc(C2CC2)n1
## Output 57
